These measurements were taken from ChEMBL document CHEMBL5226291.

procedure.details: Cytotoxicity against African green monkey Vero E6 cells by CCK-8 assay
Format: toxicity, cell-based, Vero C1008
experimental.conditions: chlorocebus sabaeus
CC50 values, listed per item

Some solved cases for reference:
compound=O=C[C@H](C[C@@H]1CCNC1=O)NC(=O)[C@H](Cc1cccc(F)c1)NC(=O)c1cc2ccccc2[nH]1 result="> 100 µM"
compound=O=C[C@H](C[C@@H]1CCNC1=O)NC(=O)[C@H](CC1CCCCC1)NC(=O)c1cc2ccccc2[nH]1 result="> 100 µM"
compound="Nc1nc2c(ncn2CCC(CO)CO)c(=O)[nH]1 [PENCICLOVIR]" result="> 400 µM"
compound=NC(=O)c1nc(F)cnc1O result="> 400 µM"
compound="NC(=O)c1ncn([C@@H]2O[C@H](CO)[C@@H](O)[C@H]2O)n1 [RIBAVIRIN]" result="> 400 µM"

Proceeding to the next compound to report its CC50.
Request: Item under review: CCN(CC)CCCC(C)Nc1ccnc2cc(Cl)ccc12 (stereo unspecified) [CHLOROQUINE] . Reported CC50?
Response: > 100 µM
